Target: human Jag1-DSL-EGF1-4 (UniProt P78504 34-377)
Assay: Biacore (SPR)
readout: Kd (nM)
Enter your answer as a number in nM; do not include the unit.

Answered cases to consult:
C (antibody, V domains shown) VH: EVQLVESGGGLVQPGGSLRLSCAASGFTFTNSDIHWVRQAPGKGLEWVGGITPADGYTDYADSVKGRFTISADTSKNTAYLQMNSLRAEDTAVYYCARSYWNNSPGSGFDYWGQGTLVTVSS VL: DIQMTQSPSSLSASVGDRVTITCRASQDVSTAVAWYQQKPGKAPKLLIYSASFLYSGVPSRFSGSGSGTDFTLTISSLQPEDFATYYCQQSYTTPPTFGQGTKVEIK : 2.3
D-2 (antibody, V domains shown) VH: EVQLVESGGGLVQPGGSLRLSCAASGFSVKPMYMTWVRQAPGKGLEWVSTIWYQSGTTDYADSVKGRFTISADTSKNTAYLQMNSLRAEDTAVYYCARSSPWSGEGFGMDVWGQGTLVTVSS VL: DIQMTQSPSSLSASVGDRVTITCRASQSISSYLAWYQQKPGKAPKLLIYGASSRASGVPSRFSGSGSGTDFTLTISSLQPEDFATYYCQQYSSSPLTFGQGTKVEIK : 1.1
D-1 (antibody, V domains shown) VH: EVQLVESGGGLVQPGGSLRLSCAASGFTFTSNYMSWVRQAPGKGLEWVSTIWYQSGTTDYADSVKGRFTISADTSKNTAYLQMNSLRAEDTAVYYCARDSPWPSKGFGMDVWGQGTLVTVSS VL: DIQMTQSPSSLSASVGDRVTITCRASQSISSYLAWYQQKPGKAPKLLIYGASSRASGVPSRFSGSGSGTDFTLTISSLQPEDFATYYCQQYLSSPITFGQGTKVEIK : 0.52

// field: Kd; key: C-1 (antibody, V domains shown) VH: EVQLVESGGGLVQPGGSLRLSCAASGFTFTNSDIHWVRQAPGKGLEWVGGITPADGYTDYADSVKGRFTISADTSKNTAYLQMNSLRAEDTAVYYCARSYWSSSPGSAFDYWGQGTLVTVSS VL: DIQMTQSPSSLSASVGDRVTITCRASQDVSTAVAWYQQKPGKAPKLLIYSASFLYSGVPSRFSGSGSGTDFTLTISSLQPEDFATYYCQQSYISPSTFGQGTKVEIK ; value = 0.31
